# System tested: Tyrosyl-tRNA synthetase, putative (Trypanosoma cruzi (strain CL Brener)) (UniProt Q4DSP6)
# Sequence (Q4DSP6 as listed by the source): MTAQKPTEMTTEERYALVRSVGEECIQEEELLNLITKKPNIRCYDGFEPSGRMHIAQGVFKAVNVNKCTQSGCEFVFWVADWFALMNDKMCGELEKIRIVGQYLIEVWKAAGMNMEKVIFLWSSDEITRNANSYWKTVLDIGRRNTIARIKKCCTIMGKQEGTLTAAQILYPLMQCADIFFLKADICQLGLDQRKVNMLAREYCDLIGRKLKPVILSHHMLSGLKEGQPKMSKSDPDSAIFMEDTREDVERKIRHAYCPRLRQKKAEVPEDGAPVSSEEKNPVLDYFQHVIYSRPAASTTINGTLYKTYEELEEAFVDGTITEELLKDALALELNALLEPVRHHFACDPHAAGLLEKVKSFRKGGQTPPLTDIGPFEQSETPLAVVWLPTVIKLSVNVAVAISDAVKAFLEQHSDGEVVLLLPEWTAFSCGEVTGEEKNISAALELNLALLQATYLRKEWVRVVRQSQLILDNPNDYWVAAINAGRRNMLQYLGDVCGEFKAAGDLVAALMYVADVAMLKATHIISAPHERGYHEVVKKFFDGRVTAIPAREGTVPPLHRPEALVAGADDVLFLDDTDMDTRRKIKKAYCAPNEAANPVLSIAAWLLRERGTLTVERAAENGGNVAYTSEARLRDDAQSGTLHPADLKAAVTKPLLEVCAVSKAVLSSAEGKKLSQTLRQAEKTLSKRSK
# Assay method text: Trypanosoma cruzi tyrosyl tRNA synthetase (TcYRS) _High Tyrosine SOP
# Format: functional
# Design: scale not given: in the data most compounds retested in dose-response had high values
# Test settings: 30 µM
Kindly supply the reported Percent Effect values for the records listed here.
// units = %; emit number, no label

### Prompt Give reported Percent Effect value for Cc1nn(-c2ccccc2)cc1C(=O)N1CCCN2CCCC2C1 (stereo unspecified)
### Response 7.89

### Prompt # return recorded Percent Effect for entry CN(C)Cc1ccc(C2CCCCN2C(=O)c2cc(C3CC3)n[nH]2)cc1 (stereo unspecified)
### Response 5.85

### Prompt Please indicate Percent Effect recorded for `Cc1ccoc1C(=O)NC1CCN(Cc2cccc3c2OCCO3)CC1`
### Response 13.5

### Prompt Please give measured Percent Effect of the following entry: `C[C@@H]1CN(C2(C(=O)N3CCCCCC3)Cc3ccccc3C2)C[C@H](C)O1`
### Response 2.1

### Prompt Give Percent Effect for the following compound: `O=C(NCCn1ccnc1)N1CCN(Cc2cccs2)CC1`
### Response 4.9

### Prompt State its Percent Effect: `COc1ccccc1OCCN1CCC(N2CCNC2=O)CC1`
### Response -3.96

### Prompt Tell me its Percent Effect given `Cc1cc(C(=O)O)cc(S(=O)(=O)Nc2ccc3c(c2)OCO3)c1C` as the entry.
### Response -4.31

### Prompt Please list Percent Effect recorded for the compound O=C(NCCC1CCCO1)c1ccccc1N1CCOCC1 (stereo unspecified)
### Response 10.4

### Prompt Return value of Percent Effect for input `COc1cc(C)c(S(=O)(=O)NCc2cccnc2N(C)C)c(C)c1` , no commentary.
### Response 4.9

### Prompt Answer with reported Percent Effect of c1ccc(Cn2cncn2)c(CNCC2CNc3ccnn3C2)c1 (stereo unspecified)
### Response 12.6

### Prompt Read the entry CC(O)CN1CCN(C(=O)CN(C)c2ccc(Cl)cn2)CC1 (stereo unspecified) and write its reported Percent Effect.
### Response 4.76

Values compiled from ChEMBL document CHEMBL3988442.
